Source of measurements: ChEMBL document CHEMBL1145498

- MEASURED TARGET: Serine/threonine-protein kinase Nek2 (Homo sapiens)
ΔTm less than 1 °C is True; ΔTm greater than or equal to 1 °C is False.

Sample answers from the record:
Check if ΔTm falls below 1 °C for CC(=O)O/N=C1/C(=C2/C(=O)Nc3cc(Br)ccc32)Nc2ccccc21 .
False

Moving on to N#CC(C#N)=Cc1ccc(O)c(O)c1
False

Moving on to Cn1cc(C2=C(c3cn(CCCSC(=N)N)c4ccccc34)C(=O)NC2=O)c2ccccc21
True

Moving on to COc1cc(C[C@H]2C(=O)OC[C@@H]2Cc2ccc(OC)c(OC)c2)ccc1O
False

Moving on to CN(C)CCCn1cc(C2=C(c3c[nH]c4ccccc34)C(=O)NC2=O)c2ccccc21
True

Moving on to Nc1n[nH]c2nc3ccccc3nc12
False

In the following, a different molecule is considered.
Check if ΔTm falls below 1 °C for NC1=NC(=O)/C(=C2\CCNC(=O)c3[nH]c(Br)cc32)N1 .
True

* * *

Below are ΔTm values measured for Calcium/calmodulin-dependent protein kinase type IV (Homo sapiens).
Numbers only, in °C.

Could you tell me ΔTm for each of these compounds? They are listed below.
1. NCCNc1ncc(C(N)=O)c(Nc2cccc(C(F)(F)F)c2)n1
2. O=Nc1c(-c2c(O)[nH]c3ccccc23)[nH]c2ccccc12
3. COc1cc2ncnc(Nc3cccc(O)c3)c2cc1OC
4. CC(C)c1cc(/C=C(\C#N)C(=O)NCCCc2ccccc2)cc(C(C)C)c1O
5. O=S(=O)(NCCNC/C=C/c1ccc(Br)cc1)c1cccc2cnccc12

[0.9, 4.5, 0, 1.2, 0.4]

Could you tell me ΔTm for each of these compounds? They are listed below.
1. Cl.Cn1cc(C2=C(c3ccc4cc5n(c4c3)CCC(CN)C5)C(=O)NC2=O)c2ccccc21 (stereo unspecified)
2. Nc1n[nH]c2nnc(-c3c(-c4ccccc4)nn4ccccc34)cc12
3. c1ccc(-c2n[nH]c3c2oc2ccccc23)cc1
4. CN(C)S(=O)(=O)c1ccc2c(c1)/C(=C/c1cc3c([nH]1)CCCC3)C(=O)N2

1: 0.1; 2: 0.7; 3: -0.2; 4: 2.6

Could you tell me ΔTm for each of these compounds? They are listed below.
1. CC(C)n1cnc2c(NCc3ccccc3)nc(NCCCO)nc21
2. O=C1Nc2ccccc2/C1=C1/Nc2ccccc2/C1=N\O

1. 0.4
2. 5.5

* * *

- MEASURED TARGET: Calcium/calmodulin-dependent protein kinase type II subunit beta (Homo sapiens) (UniProt Q13554)
- Sequence (Q13554 whole entry): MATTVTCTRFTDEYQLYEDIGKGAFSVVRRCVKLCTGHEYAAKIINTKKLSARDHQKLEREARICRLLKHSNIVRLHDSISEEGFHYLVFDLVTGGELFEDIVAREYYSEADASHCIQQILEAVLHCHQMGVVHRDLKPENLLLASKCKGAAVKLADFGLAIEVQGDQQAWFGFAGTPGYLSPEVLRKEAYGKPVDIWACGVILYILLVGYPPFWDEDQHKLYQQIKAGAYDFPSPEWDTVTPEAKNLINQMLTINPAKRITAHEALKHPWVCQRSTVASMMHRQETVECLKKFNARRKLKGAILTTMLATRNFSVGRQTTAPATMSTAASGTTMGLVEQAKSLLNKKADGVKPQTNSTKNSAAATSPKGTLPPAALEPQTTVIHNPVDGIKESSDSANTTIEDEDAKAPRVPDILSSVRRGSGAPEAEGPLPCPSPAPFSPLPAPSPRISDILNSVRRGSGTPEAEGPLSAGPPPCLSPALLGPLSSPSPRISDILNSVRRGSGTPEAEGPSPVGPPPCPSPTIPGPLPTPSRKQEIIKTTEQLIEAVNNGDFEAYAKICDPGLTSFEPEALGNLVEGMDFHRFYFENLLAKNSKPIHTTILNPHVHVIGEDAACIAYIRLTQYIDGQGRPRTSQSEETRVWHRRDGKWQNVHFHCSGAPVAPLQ
Please provide measured ΔTm for the entries that follow.
Give bare numbers, in °C.

Here's what some known entries look like.
I would be grateful if you could share the reported ΔTm for NC(=O)c1ccc(-c2nc(-c3ccc4c(c3)OCCO4)c(-c3ccccn3)[nH]2)cc1 .
1

Moving on to O=c1c(O)c(-c2ccc(O)c(O)c2)oc2cc(O)cc(O)c12
2.9

Moving on to Nc1n[nH]c2nnc(-c3c(-c4ccccc4)nn4ccccc34)cc12
-0.6

Moving on to COc1cc(OC)c(/C=C2\C(=O)Nc3ccccc32)c(OC)c1
0.1

Moving on to c1ccc(-c2n[nH]c3c2oc2ccccc23)cc1
0.6

Continuing:
I would be grateful if you could share the reported ΔTm for CCN(CC)CCNC(=O)c1c(C)[nH]c(/C=C2\C(=O)Nc3ccc(F)cc32)c1C .
2.2
